From: patent US10508104B2

molecular target: UniProt:P35414; assay: Intracellular cAMP accumulation assay (APJ hcAMP, HTRF); type: cell-based; conditions: human APJ, intracellular cAMP accumulation; read-out: Human APJ cAMP EC50 Potency range
READOUT: EC50

Reported EC50 for CCCCc1nc(=O)c(S(=O)(=O)c2ccc(-c3cncc(F)c3)cc2)c(O)n1[C@@H](CC)c1cccc(OC)c1 [Example 145] : what is it?
0.01 to 10 nM

Reported EC50 for COC[C@@H](c1ccccc1)n1c(CCC(C)C)nc(=O)c(S(=O)(=O)c2ccc(-c3ccncc3C)cc2)c1O [Example 191] : what is it?
0.01 to 10 nM

Reported EC50 for CCCCc1nc(=O)c(S(=O)(=O)C2CCN(C(=O)C3CC3)CC2)c(O)n1-c1c(OC)cccc1OC [Example 113] : what is it?
0.01 to 10 nM

Next:
Reported EC50 for CCCCc1nc(=O)c(S(=O)(=O)c2cc(C)oc2C)c(O)n1-c1c(OC)cccc1OC [Example 100] : what is it?
0.01 to 10 nM

Reported EC50 for CCCCc1nc(=O)c(S(=O)(=O)c2ccc(C3CC3)cn2)c(O)n1-c1c(OC)cccc1OC [Example 101] : what is it?
0.01 to 10 nM

Reported EC50 for CCCCc1nc(=O)c(S(=O)(=O)c2ccc(-c3cccc(C#N)c3)cc2)c(O)n1-c1c(OC)cccc1OC [Example 47] : what is it?
0.01 to 10 nM

Reported EC50 for CCCCc1nc(=O)c(S(=O)(=O)c2ccc(-c3ccncc3C)cc2)c(O)n1[C@H](CC)c1ccccc1 [Example 143] : what is it?
0.01 to 10 nM

Reported EC50 for CCCCc1nc(=O)c(S(=O)(=O)c2ccc(-c3cccc(OCOC)c3)cc2)c(O)n1-c1c(OC)cccc1OC [Example 45] : what is it?
0.01 to 10 nM

Reported EC50 for COC[C@@H](c1ccccc1)n1c(CC2CC2)nc(=O)c(S(=O)(=O)c2ccc(-c3ccncc3C)cc2)c1O [Example 178] : what is it?
0.01 to 10 nM

Reported EC50 for CCCCc1nc(=O)c(S(=O)(=O)c2ccc(-c3ccc(F)nc3C)cc2)c(O)n1C(c1ccccc1)C1CC1 (centres unmarked) [Example 202] : what is it?
0.01 to 10 nM

Reported EC50 for CCCCc1nc(=O)c(S(=O)(=O)c2ccc(-c3cccnc3C)cc2)c(O)n1-c1c(OC)cccc1OC [Example 60] : what is it?
0.01 to 10 nM

Reported EC50 for CCCCc1nc(=O)c(S(=O)(=O)c2ccc(-c3cccc(F)n3)cc2)c(O)n1-c1c(OC)cccc1OC [Example 42] : what is it?
0.01 to 10 nM

Reported EC50 for CCCc1nc(=O)c(S(=O)(=O)c2ccc(Br)cc2)c(O)n1[C@@H](COC)c1ccccc1 [Example 125] : what is it?
100 to 300 nM

Reported EC50 for CCCCc1nc(=O)c(S(=O)(=O)Cc2ccccc2)c(O)n1-c1c(OC)cccc1OC [Example 5] : what is it?
10 to 100 nM

====

target: human APJ receptor (Homo sapiens (Human), UniProt P35414); experiment: Intracellular cAMP accumulation assay (APJ hcAMP, HTRF); assay type: cell-based; settings: human APJ, cAMP accumulation; read-out: Human APJ cAMP EC50 Potency range
Sequence (P35414 whole entry): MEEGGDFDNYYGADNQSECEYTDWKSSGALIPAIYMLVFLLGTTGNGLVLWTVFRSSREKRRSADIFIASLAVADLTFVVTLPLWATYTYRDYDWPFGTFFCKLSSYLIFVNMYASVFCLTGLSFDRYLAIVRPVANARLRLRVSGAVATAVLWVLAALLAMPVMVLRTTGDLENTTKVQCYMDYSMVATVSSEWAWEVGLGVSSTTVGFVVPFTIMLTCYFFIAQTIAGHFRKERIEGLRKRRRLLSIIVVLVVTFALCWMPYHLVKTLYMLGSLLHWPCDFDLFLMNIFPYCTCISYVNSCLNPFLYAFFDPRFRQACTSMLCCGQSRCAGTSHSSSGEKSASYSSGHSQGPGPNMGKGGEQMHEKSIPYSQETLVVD
pEC50: −log10 of the molar value.
READOUT: pEC50

Reported pEC50 for COC[C@@H](c1ccccc1)n1c(C2CCCO2)nc(=O)c(S(=O)(=O)c2ccc(-c3ccc(F)nc3C)cc2)c1O (single isomer, unassigned) [Example 357] : what is it?
8.00 to 11.00

Next:
Reported pEC50 for `CC(C)OCc1nc(=O)c(S(=O)(=O)c2ccc(Br)cc2)c(O)n1[C@H]1CCc2ccccc21` : what is it?
7.00 to 8.00

Reported pEC50 for COC[C@@H](c1ccccc1)n1c(C2CCCO2)nc(=O)c(S(=O)(=O)c2ccc(-c3ccncc3C)cc2)c1O (single isomer, unassigned) [Example 351] : what is it?
8.00 to 11.00

Reported pEC50 for `CCCCc1nc(=O)c(S(=O)(=O)c2ccc(-c3cccnc3C)cc2)c(O)n1[C@@H](CC)c1cccc2c1OCO2` : what is it?
8.00 to 11.00

Reported pEC50 for `CCCCc1nc(=O)c(S(=O)(=O)c2ccc(-c3ccnc(F)c3C)cc2)c(O)n1[C@H]1CCCc2ccccc21` : what is it?
8.00 to 11.00

Reported pEC50 for `CCOCc1nc(=O)c(S(=O)(=O)c2ccc(Br)cc2)c(O)n1[C@@H](COC)c1ccccc1` : what is it?
6.52 to 7.00

Reported pEC50 for `CCOCc1nc(=O)c(S(=O)(=O)c2ccc(Br)cc2)c(O)n1[C@@H](CC)c1ccccc1` : what is it?
6.52 to 7.00

====

target: human APJ receptor (Homo sapiens (Human)); test: Intracellular cAMP accumulation assay (APJ hcAMP, HTRF); assay type: cell-based; conditions: HEK293 cells stably expressing human APJ receptor; inhibition of forskolin-mediated cAMP production; read-out: Human APJ cAMP EC50 Potency range
pEC50: −log10 of the molar value.
READOUT: pEC50

Reported pEC50 for `CCCCc1nc(=O)c(S(=O)(=O)[C@H]2CC[C@H](OCc3ccccc3)CC2)c(O)n1-c1c(CC)cccc1CC` : what is it?
8.00 to 11.00

Next:
Reported pEC50 for `CCCCc1nc(=O)c(S(=O)(=O)c2ccc(-c3cccnc3F)cc2)c(O)n1[C@@H](CC)c1cccc(C#N)c1` : what is it?
8.00 to 11.00

Reported pEC50 for `CCCCc1nc(=O)c(S(=O)(=O)c2ccc(-c3cccn(C)c3=O)cc2)c(O)n1[C@H](c1cccc(C#N)c1)C1CC1` : what is it?
8.00 to 11.00

Reported pEC50 for `C/C=C(/c1cccc(C#N)c1)n1c(CCCC)nc(=O)c(S(=O)(=O)c2ccc(-c3ccncc3C)cc2)c1O` : what is it?
8.00 to 11.00

====

target: UniProtKB P35414; test: Intracellular cAMP accumulation assay (APJ hcAMP, HTRF); type: cell-based; details: HEK293 cells stably expressing human APJ receptor; inhibition of forskolin-mediated cAMP production; read-out: Human APJ cAMP EC50 Potency range
pEC50: −log10 of the molar value.
Item-by-item account of pEC50

Previously resolved entries follow.
Reported pEC50 for COC[C@@H](c1ccccc1)n1c(CCC(C)C)nc(=O)c(S(=O)(=O)c2ccc(Br)cc2)c1O [Example 184] : what is it?
7.00 to 8.00

Reported pEC50 for CCCCc1nc(=O)c(S(=O)(=O)c2ccc(-c3ccccc3C(N)=O)cn2)c(O)n1[C@@H](CC)c1cccc(C#N)c1 [Example 467] : what is it?
8.00 to 11.00

Reported pEC50 for CNC(=O)c1ccccc1-c1ccc(S(=O)(=O)c2c(O)n([C@H](c3cccc(C#N)c3)C3CC3)c(COC(C)C)nc2=O)cc1 [Example 420] : what is it?
8.00 to 11.00

Next:
Reported pEC50 for CCOCc1nc(=O)c(S(=O)(=O)c2ccc(-c3ccncc3C)cc2)c(O)n1[C@@H](COC)c1cc(F)cc(F)c1 [Example 387] : what is it?
8.00 to 11.00

Reported pEC50 for CCCCc1nc(=O)c(S(=O)(=O)c2ccc(-c3ccc(F)nc3C)cc2)c(O)n1[C@@H]1CCc2ccc(C#N)cc21 [Example 546] : what is it?
6.52 to 7.00

Reported pEC50 for CCCCc1nc(=O)c(S(=O)(=O)c2ccc(-c3cccc4c3C(=O)NC4)cc2)c(O)n1[C@H](c1cccc(C#N)c1)C1CC1 [Example 524] : what is it?
8.00 to 11.00

Reported pEC50 for CCCCc1nc(=O)c(S(=O)(=O)c2ccc(-c3ccc(F)nc3C)cc2)c(O)n1[C@@H](CC)c1cc(F)cc(F)c1 [Example 433] : what is it?
8.00 to 11.00

Reported pEC50 for COC[C@@H](c1cc(F)cc(F)c1)n1c(COC(C)C)nc(=O)c(S(=O)(=O)c2ccc(-c3cccnc3C)cc2)c1O [Example 379] : what is it?
8.00 to 11.00

Reported pEC50 for CCCCc1nc(=O)c(S(=O)(=O)C2CCN(C(=O)OC(C)(C)C)CC2)c(O)n1-c1c(OC)cccc1OC [Example 105] : what is it?
8.00 to 11.00

Reported pEC50 for CCCCc1nc(=O)c(S(=O)(=O)c2ccc(-c3ccncc3C)cc2)c(O)n1[C@H](c1cccc(C#N)c1)C(C)C [Example 447] : what is it?
8.00 to 11.00
